// reported Maximum mean fluorescence intensity for each item listed
Target: T1, human MSLN-R3 protein expressed on HEK293T cells (HEK293T-hMSLN-R3) (human, UniProt Q13421 487-606)
T1 construct: C-terminal limit uncertain
T1 sequence (Q13421 495-614): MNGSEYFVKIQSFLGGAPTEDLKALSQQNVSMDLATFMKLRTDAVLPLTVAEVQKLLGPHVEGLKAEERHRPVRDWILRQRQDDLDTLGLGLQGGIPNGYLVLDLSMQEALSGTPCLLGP
Test: FACS on HEK293T-hMSLN-R3 cells;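 also: chimeric antibodies incubated with cells on ice for 2 h, binding read by flow cytometry as mean fluorescence intensity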
MEASURE_NAME: Maximum mean fluorescence intensity

INSERT INTO assay_data (binder, result) VALUES
  ('S009-F8-12.13 (antibody, human IgG1, kappa, V domains shown, human-murine chimeric antibody, human IgG1/kappa constant regions) VH: QVQLQQPGAELVKPGASVKLSCKASGYTFTSYWMHWVKQRPGQGLEWIGMIHPNSGSTNYNEKFKSKATLTVDKSSSTAYMQLSSLTSEDSAVYYCARRTPIITLVGHWYFDVWGTGTTVTVSS VL: DIVMTQSHKFMSTSVGDRVSITCKASQDVGTAVAWYQQKPGQSPKLLIYWASTRHTGVPDRFTGSGSGTDFTLTISNVQSEDLADYFCQQYSSYPLTFGAGTKLELKR', 135),
  ('S009-F8-31.22 (antibody, human IgG1, kappa, V domains shown, human-murine chimeric antibody, human IgG1/kappa constant regions) VH: EVQLVESGGDLVKPGGSLKLSCAASGFTFSTYGMSWVRQTPDKRLEWVATISSGGSYTYYPDSLKGRFTISRDNAKNTLYLQMSSLKSEDTAMYYCARHEGYYYGKDYWGQGTTLTVSS VL: DIVLTQSPATLSVTPGDSVSLSCRASHSISNNLHWYQQKSHESPRLLIKYASQSISGIPSKFSGSGSGTDFTLSINSVETEDFGMYFCQQTNSWPLTFGAGTKLELKR', 189),
  ('S009-F8-27.1 (antibody, human IgG1, kappa, V domains shown, human-murine chimeric antibody, human IgG1/kappa constant regions) VH: EVQLVESGGGLVKPGGSLKLSCAASGFTFSSYAMSWVRQTPEKRLEWVATISDGGNYTYYPDNVKGRFTISRDNAKNNLYLQMSHLKSEDTAMYYCAGDRGYPYAMDSWGQGTSVTVSS VL: NIMMTQSPSSLAVSAGEKVTMSCKSSQSVLYSSNQKNYLAWYQQKPGQSPKLLIYWASTRESGVPDRFTGSGSGTDFTLTISNVHAEDLAVYYCHQYLSSLTFGAGTKLELKR', 120),
  ('S009-F8-24.14 (antibody, human IgG1, kappa, V domains shown, human-murine chimeric antibody, human IgG1/kappa constant regions) VH: EFQLQQSGPELVKPGASVKISCKASGYSFTDYNMNWVKLSNGKSLEWIGVIIPNYGTSSYNQKFKGKATLTVDQSSSTAYMQLNSLTSEDSAVYYCARWDNYYGSSLDYWGQGTTLTVSS VL: DIVMTQSQKFMSTTVGDRVSITCKASQNVGTAVAWYQQKPGQSPKLLIYSASNRYTGVPDRFTGSGSGTDFILTISNMQSEDLADYFCQQYSSYPLTFGAGTKLELKR', 82),
  ('S009-F8-13.8 (antibody, human IgG1, kappa, V domains shown, human-murine chimeric antibody, human IgG1/kappa constant regions) VH: EFQLQQSGPELVKPGASVKISCKASGYSFTDYNMNWVKQTNGKSLEWIGIINPNYGTSSYNQKFKGKATLTVDQSSSTAYMQLNSLTSEDSAVYYCARVGRDNSGFDYWGQGTTLTVSS VL: QIVLTQSPAIMSASPGEKVTMTCSASSSVSYMYWYQQKPGSSPRLLIYDTSNLASGVPVRFSGSGSGTSYSLTISRMEAEDAATYYCQQWSSYPPTFGSGTELEIKR', 95);

Just for reference, patent US20250250357A1 is where these values come from.
